TARGET: T1, Cre recombinase monomer with Q311R mutation
T1 chain: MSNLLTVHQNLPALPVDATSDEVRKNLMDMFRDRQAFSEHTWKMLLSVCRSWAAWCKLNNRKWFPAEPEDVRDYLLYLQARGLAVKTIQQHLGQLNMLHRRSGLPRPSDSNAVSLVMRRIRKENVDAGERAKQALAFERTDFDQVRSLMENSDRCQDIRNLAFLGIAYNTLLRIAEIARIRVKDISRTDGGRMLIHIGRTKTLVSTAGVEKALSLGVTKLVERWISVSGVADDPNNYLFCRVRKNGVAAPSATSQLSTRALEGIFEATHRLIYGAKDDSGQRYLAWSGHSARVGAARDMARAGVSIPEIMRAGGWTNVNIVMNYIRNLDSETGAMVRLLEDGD
MEASURED PROPERTY: Median dimer activity (recombination on loxP) (%)

{"PROTEIN": "Cre recombinase monomer with R292H mutation (protein) MSNLLTVHQNLPALPVDATSDEVRKNLMDMFRDRQAFSEHTWKMLLSVCRSWAAWCKLNNRKWFPAEPEDVRDYLLYLQARGLAVKTIQQHLGQLNMLHRRSGLPRPSDSNAVSLVMRRIRKENVDAGERAKQALAFERTDFDQVRSLMENSDRCQDIRNLAFLGIAYNTLLRIAEIARIRVKDISRTDGGRMLIHIGRTKTLVSTAGVEKALSLGVTKLVERWISVSGVADDPNNYLFCRVRKNGVAAPSATSQLSTRALEGIFEATHRLIYGAKDDSGQRYLAWSGHSAHVGAARDMARAGVSIPEIMQAGGWTNVNIVMNYIRNLDSETGAMVRLLEDGD", "NUMERIC VALUE": 88}
{"PROTEIN": "Cre recombinase monomer with H289I mutation (protein) MSNLLTVHQNLPALPVDATSDEVRKNLMDMFRDRQAFSEHTWKMLLSVCRSWAAWCKLNNRKWFPAEPEDVRDYLLYLQARGLAVKTIQQHLGQLNMLHRRSGLPRPSDSNAVSLVMRRIRKENVDAGERAKQALAFERTDFDQVRSLMENSDRCQDIRNLAFLGIAYNTLLRIAEIARIRVKDISRTDGGRMLIHIGRTKTLVSTAGVEKALSLGVTKLVERWISVSGVADDPNNYLFCRVRKNGVAAPSATSQLSTRALEGIFEATHRLIYGAKDDSGQRYLAWSGISARVGAARDMARAGVSIPEIMQAGGWTNVNIVMNYIRNLDSETGAMVRLLEDGD", "NUMERIC VALUE": 75}
{"PROTEIN": "Cre recombinase monomer with R173S mutation (protein) MSNLLTVHQNLPALPVDATSDEVRKNLMDMFRDRQAFSEHTWKMLLSVCRSWAAWCKLNNRKWFPAEPEDVRDYLLYLQARGLAVKTIQQHLGQLNMLHRRSGLPRPSDSNAVSLVMRRIRKENVDAGERAKQALAFERTDFDQVRSLMENSDRCQDIRNLAFLGIAYNTLLSIAEIARIRVKDISRTDGGRMLIHIGRTKTLVSTAGVEKALSLGVTKLVERWISVSGVADDPNNYLFCRVRKNGVAAPSATSQLSTRALEGIFEATHRLIYGAKDDSGQRYLAWSGHSARVGAARDMARAGVSIPEIMQAGGWTNVNIVMNYIRNLDSETGAMVRLLEDGD", "NUMERIC VALUE": 97}
{"PROTEIN": "Cre recombinase monomer with K201Y mutation (protein) MSNLLTVHQNLPALPVDATSDEVRKNLMDMFRDRQAFSEHTWKMLLSVCRSWAAWCKLNNRKWFPAEPEDVRDYLLYLQARGLAVKTIQQHLGQLNMLHRRSGLPRPSDSNAVSLVMRRIRKENVDAGERAKQALAFERTDFDQVRSLMENSDRCQDIRNLAFLGIAYNTLLRIAEIARIRVKDISRTDGGRMLIHIGRTYTLVSTAGVEKALSLGVTKLVERWISVSGVADDPNNYLFCRVRKNGVAAPSATSQLSTRALEGIFEATHRLIYGAKDDSGQRYLAWSGHSARVGAARDMARAGVSIPEIMQAGGWTNVNIVMNYIRNLDSETGAMVRLLEDGD", "NUMERIC VALUE": 90}
